Measured Conversion to dicamba, 7 days, listed per entry.
experiment: In vitro dicamba photo-release from photo-labile dicamba esters, tetrahydrofuran solvent (Example 26); format: physicochemical; conditions: THF, 0.1 mM ester, simulated sunlight 14 hours per day, 35° C., 7 days

COMPOUND | Conversion to dicamba, 7 days [%]
COc1ccc(C(=O)COC(=O)c2c(Cl)ccc(Cl)c2OC)cc1 | 89
COc1c(Cl)ccc(Cl)c1C(=O)Oc1cnc2ccccc2n1 [Ester 13a, 2-quinoxalinol ester of dicamba] | 61
COc1c(Cl)ccc(Cl)c1C(=O)OCc1ccccc1[N+](=O)[O-] | 76
CCCCOc1ccc(C(=O)COC(=O)c2c(Cl)ccc(Cl)c2OC)cc1 | 20
COc1c(Cl)ccc(Cl)c1C(=O)OCCc1ccccc1[N+](=O)[O-] | 88

* * *

tested on: velvetleaf; test: Field testing of emulsifiable concentrates, post-emergent control (Example 40); assay type: in vivo; details: 560 g dicamba acid equivalent per hectare
Measured % control 19 days after treatment, 560 g/ha, Velvetleaf, listed per entry.
PROPERTY MEASURED: % control 19 days after treatment, 560 g/ha, Velvetleaf (%)

COMPOUND | NUMERIC VALUE
COc1c(Cl)ccc(Cl)c1C(=O)Oc1nc(C(C)(C)C)cc(C(C)(C)C)c1C#N [Ester 36a] | 84
COc1ccc(OC(=O)c2c(Cl)ccc(Cl)c2OC)cc1 [Ester 30a, 4-methoxyphenyl ester of dicamba] | 65
COc1c(Cl)ccc(Cl)c1C(=O)O.NCCOCCO [Diglycolamine salt, diglycolamine salt of dicamba, reference compound] | 91
COc1c(Cl)ccc(Cl)c1C(=O)Oc1ccc(=O)n(CCC(C)=O)n1 [Ester 32a] | 68

* * *

assay: In vitro photo-release and hydrolytic release of dicamba in an aqueous medium (Example 35); type: physicochemical; details: 0.01 mM ester, amber (dark) bottle, 35° C., Day 28

MOLECULE | Conversion to Dicamba, Dark, Day 28
COc1c(Cl)ccc(Cl)c1C(=O)OCCc1ccccc1[N+](=O)[O-] | 3%
COc1c(Cl)ccc(Cl)c1C(=O)Oc1ccc(=O)n(CCC(C)=O)n1 [Ester 32a] | 70%
COc1c(Cl)ccc(Cl)c1C(=O)OCc1ccccc1[N+](=O)[O-] | 8%
COc1ccc(OC(=O)c2c(Cl)ccc(Cl)c2OC)cc1 [Ester 30a, 4-methoxyphenyl ester of dicamba] | 19%

* * *

Measured Conversion to Dicamba, Light, Day 2, listed per entry.
experiment: In vitro photo-release and hydrolytic release of dicamba in an aqueous medium (Example 35); format: physicochemical; settings: 0.01 mM ester, quartz tube, 14-hour day, 35° C., Day 2
PROPERTY MEASURED: Conversion to Dicamba, Light, Day 2 (%)

COMPOUND | NUMERIC VALUE
COc1c(Cl)ccc(Cl)c1C(=O)Oc1ccc(=O)n(CCC(C)=O)n1 [Ester 32a] | 16
COc1c(Cl)ccc(Cl)c1C(=O)OCc1ccccc1[N+](=O)[O-] [Ester 1a, 2-Nitrobenzyl Ester of Dicamba] | 16
COc1c(Cl)ccc(Cl)c1C(=O)OCCc1ccccc1[N+](=O)[O-] [Ester 2, 2-Nitrophenethyl Ester of Dicamba] | 79
COc1c(Cl)ccc(Cl)c1C(=O)Oc1cnc2ccccc2n1 [Ester 13a, 2-quinoxalinol ester of dicamba] | 12

* * *

assay: In vitro photo-release and hydrolytic release of dicamba in an aqueous medium (Example 35); assay type: physicochemical; settings: 0.01 mM ester, quartz tube, 14-hour day, 35° C., Day 3
Measured Conversion to Dicamba, Light, Day 3, listed per entry.
PROPERTY MEASURED: Conversion to Dicamba, Light, Day 3 (%)

COMPOUND | NUMERIC VALUE
COc1ccc(OC(=O)c2c(Cl)ccc(Cl)c2OC)cc1 [Ester 30a, 4-methoxyphenyl ester of dicamba] | 14
COc1c(Cl)ccc(Cl)c1C(=O)OCCc1ccccc1[N+](=O)[O-] [Ester 2, 2-Nitrophenethyl Ester of Dicamba] | 75
COc1c(Cl)ccc(Cl)c1C(=O)Oc1ccc(=O)n(CCC(C)=O)n1 [Ester 32a] | 18
COc1c(Cl)ccc(Cl)c1C(=O)OCc1ccccc1[N+](=O)[O-] [Ester 1a, 2-Nitrobenzyl Ester of Dicamba] | 18
COc1c(Cl)ccc(Cl)c1C(=O)Oc1cnc2ccccc2n1 [Ester 13a, 2-quinoxalinol ester of dicamba] | 13

* * *

Measured Conversion to Dicamba, Dark, Day 3, listed per entry.
test: In vitro photo-release and hydrolytic release of dicamba in an aqueous medium (Example 36); assay type: physicochemical; details: 0.01 mM (0.005 mM for diesters), amber (dark) bottle, Day 3
PROPERTY MEASURED: Conversion to Dicamba, Dark, Day 3 (%)

COMPOUND | NUMERIC VALUE
COc1ccc(COC(=O)c2c(Cl)ccc(Cl)c2OC)cc1 [Ester 29a, 4-methoxybenzyl ester of dicamba] | 83
CCOC(=O)CCn1nc(OC(=O)c2c(Cl)ccc(Cl)c2OC)ccc1=O [Ester 35a] | 68
COc1c(Cl)ccc(Cl)c1C(=O)Oc1nc(C(C)(C)C)cc(C(C)(C)C)c1C#N [Ester 36a] | 60
COc1c(Cl)ccc(Cl)c1C(=O)Oc1ccc(OC(=O)c2c(Cl)ccc(Cl)c2OC)nn1 [Ester 17, Maleic Hydrazide Diester of Dicamba] | 35
COc1c(Cl)ccc(Cl)c1C(=O)Oc1ccc(=O)n(CCC#N)n1 [Ester 34a] | 18
C=C(C(=O)OCC)C(OC(=O)c1c(Cl)ccc(Cl)c1OC)c1ccccc1[N+](=O)[O-] (centres unmarked) [Ester 31a] | 43
COc1c(Cl)ccc(Cl)c1C(=O)Oc1ccccn1 [Ester 14, 2-Hydroxypyridine Ester of Dicamba] | 84
COc1c(Cl)ccc(Cl)c1C(=O)Oc1ccc(=O)n(CCC=O)n1 [Ester 33a] | 18

* * *

experiment: In vitro photo-release and hydrolytic release of dicamba in an aqueous medium (Example 35); assay type: physicochemical; details: 0.01 mM ester, quartz tube, 14-hour day, 35° C., Day 28

COMPOUND | Conversion to Dicamba, Light, Day 28 [%]
COc1c(Cl)ccc(Cl)c1C(=O)OCc1ccccc1[N+](=O)[O-] [Ester 1a, 2-Nitrobenzyl Ester of Dicamba] | 107
COc1ccc(OC(=O)c2c(Cl)ccc(Cl)c2OC)cc1 [Ester 30a, 4-methoxyphenyl ester of dicamba] | 36
COc1c(Cl)ccc(Cl)c1C(=O)OCCc1ccccc1[N+](=O)[O-] [Ester 2, 2-Nitrophenethyl Ester of Dicamba] | 86
COc1c(Cl)ccc(Cl)c1C(=O)Oc1ccc(=O)n(CCC(C)=O)n1 [Ester 32a] | 59

* * *

Measured % Control of velvetleaf, 140 g/ha, listed per entry.
tested on: velvetleaf; experiment: Greenhouse post-emergent control of velvetleaf by emulsifiable concentrates (Example 30); type: in vivo; conditions: 140 g/ha
PROPERTY MEASURED: % Control of velvetleaf, 140 g/ha (%)

COMPOUND | VALUE UNITS | NUMERIC VALUE
COc1c(Cl)ccc(Cl)c1C(=O)O.NCCOCCO [Diglycolamine salt, diglycolamine salt of dicamba, reference compound] | % | 54
COc1c(Cl)ccc(Cl)c1C(=O)OCCOc1ccccc1[N+](=O)[O-] | % | 36
COc1c(Cl)ccc(Cl)c1C(=O)Oc1cnc2ccccc2n1 [Ester 13a, 2-quinoxalinol ester of dicamba] | % | 44
COc1c(Cl)ccc(Cl)c1C(=O)OCCOCc1ccccc1[N+](=O)[O-] | % | 32

* * *

Measured Conversion to Dicamba, Dark, Day 28, listed per entry.
experiment: In vitro photo-release and hydrolytic release of dicamba in an aqueous medium (Example 36); type: physicochemical; settings: 0.01 mM (0.005 mM for diesters), amber (dark) bottle, Day 28
PROPERTY MEASURED: Conversion to Dicamba, Dark, Day 28 (%)

MOLECULE | PROPERTY MEASURED | NUMERIC VALUE
C=C(C(=O)OCC)C(OC(=O)c1c(Cl)ccc(Cl)c1OC)c1ccccc1[N+](=O)[O-] (centres unmarked) [Ester 31a] | Conversion to Dicamba, Dark, Day 28 | 50
COc1c(Cl)ccc(Cl)c1C(=O)Oc1ccc(=O)n(CCC=O)n1 [Ester 33a] | Conversion to Dicamba, Dark, Day 28 | 55
CCOC(=O)CCn1nc(OC(=O)c2c(Cl)ccc(Cl)c2OC)ccc1=O [Ester 35a] | Conversion to Dicamba, Dark, Day 28 | 74
COc1c(Cl)ccc(Cl)c1C(=O)Oc1ccc(=O)n(CCC#N)n1 [Ester 34a] | Conversion to Dicamba, Dark, Day 28 | 87
COc1c(Cl)ccc(Cl)c1C(=O)Oc1ccccn1 [Ester 14, 2-Hydroxypyridine Ester of Dicamba] | Conversion to Dicamba, Dark, Day 28 | 97

* * *

Measured pest or weed control at 420 g/ha, listed per entry.
test system: velvetleaf; assay: Greenhouse post-emergent control of velvetleaf by emulsifiable concentrates (Example 37); assay type: in vivo; settings: Abutilon theophrasti, post-emergence, 504 h; greenhouse, 420 g/ha, Example 37; read-out: % Control of velvetleaf, 420 g/ha
PROPERTY MEASURED: pest or weed control at 420 g/ha (%)

MOLECULE | PROPERTY MEASURED | NUMERIC VALUE
COc1c(Cl)ccc(Cl)c1C(=O)Oc1ccc(OC(=O)c2c(Cl)ccc(Cl)c2OC)nn1 [Ester 17, Maleic Hydrazide Diester of Dicamba] | pest or weed control at 420 g/ha | 75
COc1ccc(OC(=O)c2c(Cl)ccc(Cl)c2OC)cc1 [Ester 30a, 4-methoxyphenyl ester of dicamba] | pest or weed control at 420 g/ha | 18.3
COc1ccc(COC(=O)c2c(Cl)ccc(Cl)c2OC)cc1 [Ester 29a, 4-methoxybenzyl ester of dicamba] | pest or weed control at 420 g/ha | 74.2
COc1c(Cl)ccc(Cl)c1C(=O)Oc1nc(C(C)(C)C)cc(C(C)(C)C)c1C#N [Ester 36a] | pest or weed control at 420 g/ha | 32.5
COc1c(Cl)ccc(Cl)c1C(=O)Oc1ccccn1 [Ester 14, 2-Hydroxypyridine Ester of Dicamba] | pest or weed control at 420 g/ha | 80.8
